# System Tested: Amyloid-beta precursor protein (Homo sapiens) (UniProt P05067)
# Sequence (P05067 whole entry): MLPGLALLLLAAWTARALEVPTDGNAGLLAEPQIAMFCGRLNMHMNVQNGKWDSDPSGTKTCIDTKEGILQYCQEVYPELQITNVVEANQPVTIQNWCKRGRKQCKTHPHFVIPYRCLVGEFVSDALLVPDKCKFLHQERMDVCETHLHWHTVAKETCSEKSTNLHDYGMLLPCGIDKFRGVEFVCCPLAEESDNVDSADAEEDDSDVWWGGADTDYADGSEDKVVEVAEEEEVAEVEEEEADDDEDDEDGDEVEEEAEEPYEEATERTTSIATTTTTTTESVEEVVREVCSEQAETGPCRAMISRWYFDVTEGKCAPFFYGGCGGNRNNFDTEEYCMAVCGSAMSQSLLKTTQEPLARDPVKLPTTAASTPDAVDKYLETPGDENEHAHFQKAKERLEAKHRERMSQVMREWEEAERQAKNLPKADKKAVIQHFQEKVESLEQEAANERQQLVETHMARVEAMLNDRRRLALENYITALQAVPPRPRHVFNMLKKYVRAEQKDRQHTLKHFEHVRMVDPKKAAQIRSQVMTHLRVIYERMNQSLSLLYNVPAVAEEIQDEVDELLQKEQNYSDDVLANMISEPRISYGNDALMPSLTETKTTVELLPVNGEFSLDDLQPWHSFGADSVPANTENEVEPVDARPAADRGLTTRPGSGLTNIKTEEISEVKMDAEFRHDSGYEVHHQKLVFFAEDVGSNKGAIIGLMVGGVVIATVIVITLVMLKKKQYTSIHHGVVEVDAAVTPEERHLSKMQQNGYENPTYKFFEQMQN
# Protocol Details: Inhibition of human recombinant amyloid beta (1 to 42) aggregation expressed in Escherichia coli BL21 (DE3) at 10 uM by Thioflavin S steady state fluorescence assay relative to control
Outcome Measure: inhibition

What does the data say about its inhibition? Entry: NC12CC3CC(F)(CC(C1)c1cc(NC(=O)CCCCNc4c5c(nc6cc(Cl)ccc46)CCCC5)ccc13)C2 (stereo not drawn)
< 5%

Item under review: NC12CC3CC(F)(CC(C1)c1cc(NC(=O)CCCNc4c5c(nc6cc(Cl)ccc46)CCCC5)ccc13)C2 (stereo not drawn) . Reported inhibition?
< 5%

Quick one: inhibition of "O=C(CCCNc1c2c(nc3cc(Cl)ccc13)CCCC2)NC12CC3CC(F)(CC(C1)c1ccccc13)C2" ?
< 5%
